activity, negative = inhibition overview
- test.target: Cytochrome P450 3A4 (Homo sapiens) (UniProt P08684)
- Sequence (P08684 whole entry, looked up): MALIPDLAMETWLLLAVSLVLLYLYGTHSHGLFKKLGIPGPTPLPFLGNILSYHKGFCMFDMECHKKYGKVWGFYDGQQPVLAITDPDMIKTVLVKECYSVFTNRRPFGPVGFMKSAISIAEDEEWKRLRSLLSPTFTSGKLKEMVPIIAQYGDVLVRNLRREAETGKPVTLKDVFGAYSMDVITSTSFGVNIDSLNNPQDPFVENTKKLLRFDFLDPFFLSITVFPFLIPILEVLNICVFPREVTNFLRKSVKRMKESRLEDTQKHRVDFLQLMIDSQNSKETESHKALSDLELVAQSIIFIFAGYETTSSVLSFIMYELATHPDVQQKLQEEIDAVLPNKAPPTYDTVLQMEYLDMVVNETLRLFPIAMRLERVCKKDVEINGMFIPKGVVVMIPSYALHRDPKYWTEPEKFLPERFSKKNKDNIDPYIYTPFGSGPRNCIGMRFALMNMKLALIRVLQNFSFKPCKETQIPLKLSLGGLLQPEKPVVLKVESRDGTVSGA
- protocol.description: Cytochrome panel assay with activity outcomes; note: % is set by controls: 0 for no effect and ±100 for the full control effect
- measurement.setup: recombinant CYP, pro-luciferin dealkylation, luminescence, p450-cyp3a4; series mostly up to 57.1 µM
Among all 16,000 compounds or so, about 5,100 (32%) were called active. Roughly 25% stayed inconclusive and do not appear here. The list shows a part of the results.

Some molecules with known activity, negative = inhibition results, for comparison:
| molecule | activity, negative = inhibition |
| --- | --- |
| COC(=O)[C@H](C)NC(=O)[C@@H](C)CO | -19.6% [at 11.4 µM] (inactive) |
| O=C(O)c1cc(C(=O)O)nc(C(=O)O)c1 | -8.29% [at 11.4 µM] (inactive) |
| COc1ccc(C(=O)Nc2cccc(/C(C)=N/NC(=O)c3ccc([N+](=O)[O-])cc3)c2)cc1OC | -28.5% [at 2.29 µM] (inactive) |
| COc1ccc(-c2nc(NC(=O)c3ccccc3)sc2-c2ccc([N+](=O)[O-])cc2)cc1 | 12.5% [at 2.29 µM] (inactive) |
| O=C(CSc1nc2ccccc2s1)c1sc2sc3ccccc3[n+]2c1O | -12.2% [at 11.4 µM] (inactive) |
| CC(C)[C@H](NC(=O)OC(C)(C)C)[C@@H](O)CC(=O)OC(C)(C)C | -23.3% [at 11.4 µM] (inactive) |
| CO[C@@H]1COC(=O)[C@@H](CCSC)NC(=O)C/C=C\[C@@H](C)COC(=O)[C@H](C)NC(=O)C/C=C\[C@H]1C | -17.8% [at 11.4 µM] (inactive) |
| Cc1[nH]n(-c2ccc(S(=O)(=O)O)cc2)c(=O)c1N=Nc1ccccc1 | 1.46% [at 11.4 µM] (inactive) |
| CC(C)NCCCOc1ccc(Cl)cc1Br | 6.16% [at 2.29 µM] (inactive) |
| CC1=C(C(=O)Nc2ccccc2)C(c2ccco2)NC(=S)N1 (stereo unspecified) | 0.933% [at 2.29 µM] (inactive) |

# input Recall the reported activity, negative = inhibition of O=C(/C=C\c1ccccc1)c1ccccc1O when tested on Cytochrome P450 3A4 (Homo sapiens) (UniProt P08684).
# output -15.8% [at 11.4 µM] (inactive)

# input Recall the reported activity, negative = inhibition of O=C1C=C(Nc2nc(C(=O)O)cc(=O)[nH]2)c2ccccc2C1=O when tested on Cytochrome P450 3A4 (Homo sapiens) (UniProt P08684).
# output -12.4% [at 11.4 µM] (inactive)

# input Name the recorded activity, negative = inhibition of COc1ccc(CC(=O)NCc2ccccn2)cc1OC , assay system Cytochrome P450 3A4 (Homo sapiens) (UniProt P08684).
# output -4.2% [at 2.29 µM] (inactive)

# input Send back Cytochrome P450 3A4 (Homo sapiens) (UniProt P08684) activity, negative = inhibition of O=[N+]([O-])c1ccc(S(=O)(=O)Cc2ccccc2)c2nonc12 only.
# output -16.7% [at 11.4 µM] (inactive)

# input Provide Cytochrome P450 3A4 (Homo sapiens) (UniProt P08684) activity, negative = inhibition reading for CO[C@@H]1COC(=O)[C@H](COCc2ccccc2)NC(=O)C/C=C\[C@@H](C)[C@H](OC)COC(=O)[C@H](COCc2ccccc2)NC(=O)C/C=C\[C@H]1C .
# output -6.81% [at 11.4 µM] (inactive)
